# MEASUREMENT TARGET: human cannabinoid type 1 (CB1) receptor (human, UniProt P21554 1-472)
# Sequence (P21554 whole entry): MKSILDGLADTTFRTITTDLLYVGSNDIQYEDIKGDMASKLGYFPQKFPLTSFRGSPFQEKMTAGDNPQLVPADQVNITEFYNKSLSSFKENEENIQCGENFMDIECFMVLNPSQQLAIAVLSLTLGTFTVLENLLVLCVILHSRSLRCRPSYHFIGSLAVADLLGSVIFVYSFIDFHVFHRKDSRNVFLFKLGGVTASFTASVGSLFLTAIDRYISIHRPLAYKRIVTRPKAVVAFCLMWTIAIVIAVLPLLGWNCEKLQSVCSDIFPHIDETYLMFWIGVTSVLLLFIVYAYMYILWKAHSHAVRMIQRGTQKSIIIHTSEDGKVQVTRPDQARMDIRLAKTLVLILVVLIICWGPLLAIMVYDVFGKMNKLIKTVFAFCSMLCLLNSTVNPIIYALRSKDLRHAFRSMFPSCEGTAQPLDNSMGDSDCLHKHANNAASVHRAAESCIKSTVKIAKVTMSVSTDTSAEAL
# ASSAY PROTOCOL: cell-based or functional assay
MEASURE: Ca^2+ influx assay IC50 (nM)
Quick reminder: number only, in nM, skip the unit.

Example results:
m2F8 (antibody, V domains shown) VH: QVQLQQSGAELVKPGASVKISCKASGYEFSYYWMNWVKQRPGKGLEWIGQIYPGDGDTNYNGKFKGKATLAAGKSSSTAYMQLSSLTSEDSAVYFCARSHGNYMIYWGQGTSVTVSS VL: QIVLTQSPAIMSASLGERITLTCIASSSVSSSYLHWYQQKPGSSPKLWIYSTSNLASGVPTRFSGSGSGTSFSLTISTMEAEDAATYYCHQYHRSPRTFGGGTKLEIKR    0.9
mIML1-2 (antibody, V domains shown) VH: QVQLQQSGAELVKPGASVKIACKASGYEFNYYWMNWVKQRPGKGLEWIGQIYPGDGDNKYNGKFKGKATLTADKSSSTVYMQLNSLTSEDSAVYFCARTGSGRFAYWGQGTLVTVSA VL: QIVLTQSPAIMSASPGEKVTMTCRASSSVSSSYLHWYQQKSGASPKLWIYSTSNLASGVPARFSGSGSGTSYSLTITSVEAEDVATYYCQQYSGFPLTFGSGTKLEIKR    1.77
m24C4 (antibody, V domains shown) VH: QVQLQQSGAELVKPGASVKISCKASGYEFSYYWMNWVKQRPGKGLEWIGQIYPGDGDTNYNGKFKGKATLTADKSSSTAYMQLSSLTSEDSAVYFCARSHGNYMHYWGQGTSVTVSS VL: QIVLTQSPAIMSASLGERITLTCTASSSVSSSYLHWYQQKPGSSPKLWIYSTSNLASGVPTRFSGSGSGTSFSLTISTMEAEDAATYYCHQYHRSPRTFGGGTKLEIKR    1.22
m4D7 (antibody, V domains shown) VH: QVQLQQSGAELVKPGASVKISCKASGYEFSYYWMNWVKQRPGKGLEWIGQIYPGDGDTNYNGKFKGKATVTADKSSSTAYMQLSSLTSEDSAVYFCAKSHGNYMDYWGQGTSVTVSS VL: QIVLTQSPAIMSASLGERITLTCTASSSVSSSYLHWYQQKPGSSPKLWIYSTSNLASGVPTRFSGSGSGTSFSLTISTMEAEDAATYYCHQYHRSPRTFGGGTKLEIKR    1.29

Please turn your attention to the following entry.
Which Ca^2+ influx assay IC50 reading was recorded for the binder m26C7 (antibody, V domains shown) VH: QVQLQQSGAELVKPGASVKISCKASGYEFSYYWMNWVKQRPGKGLEWIGQIYPGDGDTNYNGKFKGKATLTADKSSSTAYMQLSSLTSEDSAVYFCARSHGNYMAYWGQGTSVTVSS VL: QIVLTQSPAIMSASLGERITLTCTASSSVSSSYLHWYQQKPGSSPKLWIYSTSNLASGVPTRFSGSGSGTSFSLTISTMEAEDAATYYCHQYHRSPRTFGGGTKLEIKR ?
1.85
